- System: Noggin (protein binding on small-molecule microarray)
- ASSAY_INFO: Noggin binders on small-molecule microarray, primary screen, biochemical, 635/667 nm fluorescence (AID 1095);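 note: score merges 667 nm feature fluorescence with signal to noise over triplicate slides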
- DETAILS: 635 nm fluorescence, higher = more signal

{"COMPOUND": "CC(C)(C)OC(=O)CC[C@@]12N=C(c3ccc(OCCCO)cc3)O[C@@H]1c1ccccc1N(Cc1ccccc1)C2=O", "composite z-score": 0.753}
{"COMPOUND": "O=C(NCC(F)(F)F)[C@@H]1c2ccccc2C(=O)N(C2Cc3ccccc3C2)[C@H]1c1ccc(CO)cc1", "composite z-score": -1.29}
{"COMPOUND": "CC(C)[C@@H](C(=O)O)n1cc(-c2ccccn2)nn1", "composite z-score": 0.332}
{"COMPOUND": "CC(C)C[C@@H]1NC(=O)[C@@H]2C[C@H](C(=O)NCCCCCNC(=O)CS)[C@H](c3cccc(OCCO)c3)N2C1=O", "composite z-score": 1.44}
{"COMPOUND": "CC1CC/C=C\\[C@H]2OC34C=CCN(C(C)C)C(=O)[C@H]3N(C(CO)C(C)C)C(=O)[C@@H]4C2C(=O)O1 (stereo partly drawn)", "composite z-score": -0.684}
{"COMPOUND": "CCCNC(=O)[C@@H]1c2ccccc2C(=O)N(Cc2cc(C(F)(F)F)cc(C(F)(F)F)c2)[C@H]1c1ccc(CO)cc1", "composite z-score": 0.261}
{"COMPOUND": "C=CCNC(=O)[C@@H]1[C@H]2C(=O)O[C@H](c3ccccc3)[C@H](c3ccccc3)N2[C@H](c2ccc(O)cc2)[C@@]12C(=O)Nc1ccc(C#Cc3ccc(OC)cc3)cc12", "composite z-score": 0.436}
{"COMPOUND": "CC(=O)OC(C/C=C\\B1OC(C)(C)C(C)(C)O1)c1ccccc1 (stereo not drawn)", "composite z-score": -0.502}
{"COMPOUND": "CCOC(=O)C[C@H]1[C@H](OC(=O)c2ccc(-c3ccccc3)cc2)[C@@H](NC(=O)c2ccccc2)c2cc(OCCCO)ccc2N1C(=O)c1ccccc1", "composite z-score": -0.0461}
{"COMPOUND": "Cc1ccc(N2C(=O)c3ccccc3[C@](C)(C(=O)NC3CC3)[C@@H]2c2ccc(CO)cc2)nc1", "composite z-score": 0.381}
{"COMPOUND": "COCCOC(=O)N1C(=O)[C@@]2(c3cc(C#CCNC(N)=O)ccc31)[C@H](c1ccccc1OCCO)N1[C@H](c3ccccc3)[C@H](c3ccccc3)OC(=O)[C@H]1[C@@H]2C(=O)Nc1nc2ccccc2s1", "composite z-score": 0.345}
{"COMPOUND": "O=C(O)[C@H]1C[C@H]2C(=O)N[C@@H](Cc3ccccc3)C(=O)N2[C@H]1c1ccc(O)cc1", "composite z-score": 0.108}
{"COMPOUND": "O=C1O[C@H](c2ccccc2)[C@H](c2ccccc2)N2[C@H]1[C@@H](C(=O)Nc1nc3ccccc3s1)[C@]1(C(=O)Nc3ccc(C#CCCO)cc31)[C@H]2c1ccccc1OCCO", "composite z-score": 0.244}
{"COMPOUND": "C=CCC(OC(C)=O)[C@@H]1[C@@H](N(Cc2cccc3ccccc23)C(=O)Cc2ccc(OC)cc2)c2cc(OCCCO)ccc2N1C(=O)Cc1ccc(OC)cc1 (stereo partly drawn)", "composite z-score": -0.318}
{"COMPOUND": "O=C(N1CCCCC1)[C@@]1(Cc2ccccc2)N=C(c2ccc(OCCCO)cc2)O[C@H]1c1ccccc1", "composite z-score": 0.368}
{"COMPOUND": "COCCCNC(=O)[C@@]1(Cc2ccccc2)N=C(c2ccc(OCCCO)cc2)O[C@H]1c1ccccc1N=[N+]=[N-]", "composite z-score": 1.89}
{"COMPOUND": "CN1C=C(C(=O)OCCS(C)(=O)=O)C(C(=O)OCCS(C)(=O)=O)=CC(CCCO)=CC1c1cccs1 (stereo not drawn)", "composite z-score": 0.774}
{"COMPOUND": "COc1ccc(C(=O)Nc2cccc(CN3C(=O)[C@@]4(O[C@@H](CCO)[C@H]([Si](C)(C)c5ccc(OC)cc5)[C@H]4C)c4ccccc43)c2)cc1", "composite z-score": 0.297}
{"COMPOUND": "COc1ccc([Si](C)(C)[C@@H]2[C@@H](CC(=O)N3CCC[C@H]3CO)O[C@]3(C(=O)N(Cc4ccc(I)cc4)c4ccccc43)[C@H]2C)cc1", "composite z-score": 0.982}
{"COMPOUND": "CC(C)C[C@@H]1NC(=O)[C@@]23C(=O)N[C@@H](Cc4ccccc4)C2[C@H](C)[C@@]2(C)O[C@H]2C3/C=C/C/C=C\\CNC(=O)[C@H](Cc2ccccc2)NC1=O (stereo partly drawn)", "composite z-score": 0.404}
{"COMPOUND": "CC(C)CCC[C@@H](C)[C@H]1CC[C@@]2(C)C3=C(CC[C@]12C)[C@@]1(C)CC[C@H](OC(=O)CCl)C(C)(C)C1CC3 (stereo partly drawn)", "composite z-score": 0.44}
{"COMPOUND": "C=CCN1C(=O)[C@]2(O[C@H](CCn3cc([C@H](O)c4ccccc4)nn3)[C@@H]([Si](C)(C)c3ccc(OC)cc3)[C@@H]2C)c2cc(N3CCOC3=O)ccc21", "composite z-score": -0.394}
{"COMPOUND": "COC(=O)C1=CC(c2ccc(CO)cc2)=CC(C2CC2)N(C)C=C1C(=O)OC (stereo not drawn)", "composite z-score": -0.946}
{"COMPOUND": "C[C@@H](OCc1ccccc1)C1NC(=O)[C@@]23C(=O)N[C@@H](Cc4ccccc4)C2[C@H](C)[C@@]2(C)O[C@H]2C3/C=C/C/C=C\\CNC(=O)[C@@H]2CCCN2C1=O (stereo partly drawn)", "composite z-score": -0.315}
{"COMPOUND": "COc1ccc([Si](C)(C)[C@H]2[C@H](CC(=O)N(CCO)Cc3ccccc3)O[C@@]3(C(=O)N(Cc4cccc(N5C(=O)COc6ccccc65)c4)c4ccccc43)[C@@H]2C)cc1", "composite z-score": 0.97}
{"COMPOUND": "COCCOC(=O)N1C(=O)[C@@]2(c3cc(C#CC4(O)CCCCCC4)ccc31)[C@H](c1ccc(O)cc1)N1[C@H](c3ccccc3)[C@H](c3ccccc3)OC(=O)[C@H]1[C@@H]2C(N)=O", "composite z-score": 0.0282}
{"COMPOUND": "CC(CO)N1C(=O)[C@@H]2C3C(=O)OCCC/C=C\\[C@H]3OC23C=CCN(Cc2ccccc2)C(=O)[C@@H]13 (stereo partly drawn)", "composite z-score": -0.545}
{"COMPOUND": "C=C1C=C(Br)C2(OCCCO2)[C@H]2OC12 (stereo partly drawn)", "composite z-score": 0.104}
